Biological target: human PPAR gamma (Homo sapiens, UniProt P37231)
Sequence (P37231 238-503 limits assumed): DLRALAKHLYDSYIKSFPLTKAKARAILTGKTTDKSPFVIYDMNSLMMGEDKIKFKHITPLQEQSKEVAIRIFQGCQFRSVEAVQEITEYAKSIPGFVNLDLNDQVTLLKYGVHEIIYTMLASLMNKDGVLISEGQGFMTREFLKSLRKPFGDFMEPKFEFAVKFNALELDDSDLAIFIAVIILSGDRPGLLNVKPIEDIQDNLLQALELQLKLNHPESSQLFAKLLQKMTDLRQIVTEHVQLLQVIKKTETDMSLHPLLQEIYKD
Experiment: Transient transfection (transactivation) assay in CV-1 cells, hPPAR gamma
Conditions: PPAR transactivation activity, GAL4 chimera, concentration giving 50% of maximum activity, read-out: human γEC50
assay metric: EC50 (µM)
Supply the numeric figure in µM, leaving out any unit text.

Example entries and their recorded answers appear below.
* Cc1cc(OCc2nc(-c3ccc(C(C)C)cc3)no2)ccc1OC(C)(C)C(=O)O | 10
* Cc1cc(OCc2nc(-c3ccc(C(C)(C)C)cc3)no2)ccc1OC(C)(C)C(=O)O | 11.4
* CC(C)(Oc1ccc(OCc2nc(-c3ccc(C(C)(C)C)cc3)no2)cc1)C(=O)O | 0.85

[in] Which EC50 reading was recorded for the compound CC(C)(Oc1ccc(OCc2nc(-c3ccc(C(F)(F)F)cc3)no2)cc1)C(=O)O ?
[out] 10

[in] Now consider CC(C)c1ccc(-c2nc(COc3ccc(OC(C)(C)C(=O)O)cc3)no2)cc1 .
[out] 10

[in] Now consider Cc1cc(OCc2nc(-c3ccc(C(F)(F)F)cc3)no2)ccc1OC(C)(C)C(=O)O .
[out] 4.3

[in] Now consider CC(C)c1ccc(-c2noc(COc3ccc(OC(C)(C)C(=O)O)cc3)n2)cc1 .
[out] 10

[in] Now consider CC(C)(Oc1ccc(OCc2noc(-c3ccc(C(C)(C)C)cc3)n2)cc1)C(=O)O .
[out] 10

---

Recorded measurements of EC50, one per entry
Biological target: human PPAR delta (Homo sapiens)
Sequence (Q03181 211-439 limits assumed): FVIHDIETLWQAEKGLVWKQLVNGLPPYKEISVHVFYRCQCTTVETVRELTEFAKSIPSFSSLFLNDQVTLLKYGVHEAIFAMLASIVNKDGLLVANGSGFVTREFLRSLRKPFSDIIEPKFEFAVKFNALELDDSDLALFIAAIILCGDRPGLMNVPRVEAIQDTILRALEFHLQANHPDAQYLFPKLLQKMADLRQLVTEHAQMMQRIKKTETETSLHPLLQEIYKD
Assay: Transient transfection (transactivation) assay in CV-1 cells, hPPAR delta
Settings: PPAR transactivation activity, GAL4 chimera, concentration giving 50% of maximum activity, read-out: human δEC50
Supply the numeric figure in µM, leaving out any unit text.

Example entries and their recorded answers appear below.
* CC(C)(Oc1ccc(OCc2nc(-c3ccc(C(F)(F)F)cc3)no2)cc1)C(=O)O | 4.51
* CC(C)c1ccc(-c2nc(COc3ccc(OC(C)(C)C(=O)O)cc3)no2)cc1 | 8.4
* Cc1cc(OCc2nc(-c3ccc(C(F)(F)F)cc3)no2)ccc1OC(C)(C)C(=O)O | 0.311

Next, consider the following compound.
[in] Which EC50 reading was recorded for the compound Cc1cc(OCc2nc(-c3ccc(C(C)C)cc3)no2)ccc1OC(C)(C)C(=O)O ?
[out] 9.31

---

assay metric: melting point

Example entries and their recorded answers appear below.
* Cc1cc(OCc2nc(-c3ccc(C(C)C)cc3)no2)ccc1OC(C)(C)C(=O)O | 138 °C
* Cc1cc(OCc2nc(-c3ccc(C(C)(C)C)cc3)no2)ccc1OC(C)(C)C(=O)O | 155 to 157 °C
* Cc1cc(OCc2nc(-c3ccc(C(F)(F)F)cc3)no2)ccc1OC(C)(C)C(=O)O | 170 °C
* CC(C)(Oc1ccc(OCc2nc(-c3ccc(C(F)(F)F)cc3)no2)cc1)C(=O)O | 164 °C
* CC(C)c1ccc(-c2noc(COc3ccc(OC(C)(C)C(=O)O)cc3)n2)cc1 | 117 °C

[in] Which melting point reading was recorded for the compound CC(C)(Oc1ccc(OCc2nc(-c3ccc(C(C)(C)C)cc3)no2)cc1)C(=O)O ?
[out] 138 to 140 °C
